Entry source: patent US8084649B2

# System: Setaria faberi (SETFA)
# Method: Pre-emergence herbicidal activity, glasshouse pot test
# Assay type: in vivo
# Applied conditions: Setaria faberi, 480 h, rate 500 g/ha, evaluated after 20 days, read-out: Pre-emergence activity, SETFA (100=total damage to plant; 0=no damage to plant)
Task for the reader: assign each of the following molecules its reported pest or weed control at 500 g/ha.
One number for each entry, in %.

Take a look at these entries with their results.
CCc1cc(C)cc(CC)c1C1=C(O)CC(CC(C)[S+]([O-])C(C)C)CC1=O (stereo not drawn) [Compound T55] | 90
CCc1cc(CC)c(C2=C(O)CC3(CCOCC3)CC2=O)c(CC)c1 [Compound T2] | 90
CCc1cc(C)cc(CC)c1C1=C(OC(C)=O)CC2(CCOCC2)CC1=O [Compound P1] | 100
CCc1cc(C)cc(CC)c1C1=C(O)CC(CC(C)[S+]([O-])CC)CC1=O (stereo not drawn) [Compound T29] | 100
CCc1cc(C)cc(CC)c1C1=C(OC(=O)Oc2ccccc2)CC2(CCOCC2)CC1=O [Compound P18] | 100

pest or weed control at 500 g/ha reading for CCc1cc(C)cc(CC)c1C1=C(OC(=O)CC2CCCC2)CC2(CCOCC2)CC1=O [Compound P11] : 100

====

# System: Alopecurus myosuroides (ALOMY)
# Method: Post-emergence herbicidal activity, glasshouse pot test
# Format: in vivo
# Applied conditions: Alopecurus myosuroides, rate 500 g/ha, evaluated after 14 or 15 days, read-out: Post-emergence activity, ALOMY (100=total damage to plant; 0=no damage to plant)
Endpoint: pest or weed control at 500 g/ha
Write the quantity with the unit trailing the number.

Take a look at these entries with their results.
CCc1cc(C)cc(C)c1C1=C(O)CC(CC(C)SC)CC1=O (stereo not drawn) | 100%
CCc1cc(C)cc(CC)c1C1=C(O)CC(CC[S+](C)[O-])CC1=O (stereo not drawn) | 90%

Proceeding to the next compound to report its pest or weed control at 500 g/ha.
pest or weed control at 500 g/ha reading for CCc1cc(C)cc(CC)c1C1=C(O)CC(CC(C)SC(C)C)CC1=O (stereo not drawn) : 90%
